Reference for the values: patent US12344663

Target: T1, human complement C3 (human, UniProt P01024 23-1663)
T1 construct: also called human C3; native human C3
T1 sequence (P01024 23-1663 limits assumed): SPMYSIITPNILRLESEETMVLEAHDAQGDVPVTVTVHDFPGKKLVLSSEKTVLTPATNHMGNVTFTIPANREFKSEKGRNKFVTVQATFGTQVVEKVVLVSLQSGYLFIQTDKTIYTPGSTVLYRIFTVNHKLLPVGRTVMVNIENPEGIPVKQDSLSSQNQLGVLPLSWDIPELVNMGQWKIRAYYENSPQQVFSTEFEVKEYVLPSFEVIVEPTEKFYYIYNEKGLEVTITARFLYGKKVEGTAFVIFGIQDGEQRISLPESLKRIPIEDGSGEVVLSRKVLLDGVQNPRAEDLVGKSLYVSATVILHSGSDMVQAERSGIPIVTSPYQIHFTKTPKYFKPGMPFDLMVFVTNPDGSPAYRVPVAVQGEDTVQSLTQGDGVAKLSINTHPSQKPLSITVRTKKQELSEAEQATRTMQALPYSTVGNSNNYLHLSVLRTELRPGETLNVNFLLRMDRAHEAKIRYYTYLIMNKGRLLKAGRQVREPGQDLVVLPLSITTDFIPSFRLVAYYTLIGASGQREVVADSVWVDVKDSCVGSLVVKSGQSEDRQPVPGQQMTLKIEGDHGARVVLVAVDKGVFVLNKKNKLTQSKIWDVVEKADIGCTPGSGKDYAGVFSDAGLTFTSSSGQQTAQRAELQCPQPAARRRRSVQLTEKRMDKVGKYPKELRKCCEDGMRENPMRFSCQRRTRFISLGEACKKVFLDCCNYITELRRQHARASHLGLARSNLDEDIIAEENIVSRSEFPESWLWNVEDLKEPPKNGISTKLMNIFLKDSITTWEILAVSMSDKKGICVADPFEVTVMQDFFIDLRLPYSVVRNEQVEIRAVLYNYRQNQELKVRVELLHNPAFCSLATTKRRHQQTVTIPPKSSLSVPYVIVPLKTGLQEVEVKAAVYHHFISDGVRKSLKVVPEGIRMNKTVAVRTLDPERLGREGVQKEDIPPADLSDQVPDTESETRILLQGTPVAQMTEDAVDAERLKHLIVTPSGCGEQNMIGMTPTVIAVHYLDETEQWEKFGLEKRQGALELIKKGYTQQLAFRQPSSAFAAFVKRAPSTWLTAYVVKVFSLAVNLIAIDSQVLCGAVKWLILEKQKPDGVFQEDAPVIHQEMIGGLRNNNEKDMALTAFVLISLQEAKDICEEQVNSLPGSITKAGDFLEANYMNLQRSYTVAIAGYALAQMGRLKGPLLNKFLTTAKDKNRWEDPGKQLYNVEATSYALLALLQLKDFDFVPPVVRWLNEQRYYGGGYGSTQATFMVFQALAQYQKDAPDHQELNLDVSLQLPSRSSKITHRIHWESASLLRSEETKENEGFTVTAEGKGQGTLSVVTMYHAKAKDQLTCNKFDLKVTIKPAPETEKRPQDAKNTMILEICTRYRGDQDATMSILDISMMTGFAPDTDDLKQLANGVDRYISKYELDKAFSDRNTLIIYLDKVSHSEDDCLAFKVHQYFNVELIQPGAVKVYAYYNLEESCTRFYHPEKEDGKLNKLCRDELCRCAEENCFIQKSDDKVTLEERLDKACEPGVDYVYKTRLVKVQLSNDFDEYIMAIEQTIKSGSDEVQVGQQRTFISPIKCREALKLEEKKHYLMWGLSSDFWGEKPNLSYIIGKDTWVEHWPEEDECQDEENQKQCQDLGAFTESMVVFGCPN
Experiment: SPR (Biacore T100), target immobilized, single cycle kinetics, 1:1 Langmuir fit
Procedure: The kinetic parameters of the candidates are determined using a surface plasmon resonance (SPR) and Biacore T100 device. C3 and different variants thereof (Table 19) are immobilized as a ligand on a HC30M SPR sensor chip (XanTec bionanalytics, Germany) using EDC/sulfo-NHC linking chemistry. […] The data is fitted to a 1:1 Langmuir binding model and the kinetic parameters of on-rate (ka), off-rate (kd), and affinity […] were determined.
Observable: pKd
One number for each entry, as −log10 of the molar value.

Compound A3 Fab (Fab, V domains shown, also called NGM621 surrogate in a Fab format) VH: QVQLVQSGAEVKKPGASVKVSCKASGYTFTDFYMDWVRQAPGQRLEWMGYIYPHNGGTTYNQQFTGRVTITVDKSASTAYMELSSLRSEDTAVYYCARRGGFDFDYWGQGTLVTVSS VL: DIQMTQSPSSLSASVGDRVTITCKASENVDTYVSWYQQKPGKAPKLLIYGASNRYTGVPSRFSGSGSGTDFTFTISSLQPEDIATYHCGQSHSYPLTFGQGTKLEIKR	9.47
Clone II (scFv, also called scFv of the invention) scFv: MQLVLTQSPSASASLGASVKLTCTLSSAHKTYTIDWYQQQPEKCPRYLMQLKSDGSYTKGSGIPDRFSGSSSGAERYLTISSLQSEDEADYYCGTEGVGGYVFGGGTKLTVLGGGGGSGGGGSGGGGSGGGGSQVQLVESGGGSVQPGRSLRLSCAASGFTFSNYAMNWVRQAPGKGLEWVAIINVGGGTNYADSVKGRFTISRDNSKNTLYLQMNSLRAEDTASYYCARAVGYHHARLDPWGCGTSVTVSS	10.66

# ---- query binder ----
Item under review: Clone I (scFv, also called exemplary antibody of the invention (Clone I); scFv of the invention) scFv: MQLVLTQSPSASASLGASVKLTCTLSSAHKTYTIDWYQQQPEKCPRYLMQLKSDGSYTKGSGIPDRFSGSSSGAERYLTISSLQSEDEADYYCGTEGVGGYVFGGGTKLTVLGGGGGSGGGGSGGGGSGGGGSQVQLVESGGGSVQPGRSLRLSCAASGFTFSNYAMNWVRQAPGKGLEWVAVISYDGSNKYYADSVKGRFTISRDNSKNTLYLQMNSLRAEDTASYYCARAVGYHHARLDPWGCGTSVTVSS . Reported pKd? 9.82
